# EXPERIMENTAL TARGET: T1, recombinant LILRB2 ECD (human, UniProt Q8N423 22-460)
# T1 construct: also called biotinylated LILRB2 ECD
# T1 sequence (Q8N423 22-460 limits assumed): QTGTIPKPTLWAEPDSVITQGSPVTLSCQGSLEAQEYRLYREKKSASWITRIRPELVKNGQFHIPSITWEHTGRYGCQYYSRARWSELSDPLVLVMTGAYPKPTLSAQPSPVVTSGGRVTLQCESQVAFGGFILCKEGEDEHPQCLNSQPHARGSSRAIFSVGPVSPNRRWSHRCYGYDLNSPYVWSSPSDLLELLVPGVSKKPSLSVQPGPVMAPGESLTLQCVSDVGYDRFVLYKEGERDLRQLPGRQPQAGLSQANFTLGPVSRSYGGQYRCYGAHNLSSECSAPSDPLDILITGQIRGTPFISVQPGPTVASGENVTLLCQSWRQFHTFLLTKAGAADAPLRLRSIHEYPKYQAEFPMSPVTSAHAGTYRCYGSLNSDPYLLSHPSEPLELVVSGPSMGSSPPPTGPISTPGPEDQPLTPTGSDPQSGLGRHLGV
# ASSAY SUMMARY: ELISA, LILRB2 ECD binding to HLA-G-Fc
pIC50: −log10 of the molar value.

{"columns": ["BINDER", "pIC50"],
 "data": [
  ["A-035 (antibody, V domains shown, tested as IgG) VH: QVQLVQSGAEVKKPGSSVKVSCKASGGTFSSYAISWVRQAPGQGLEWMGGIIPIFGTANYAQKFQGRVTITADESTSTAYMELSSLRSEDTAVYYCAKDLGTYSSGWPYYYGMDVWGQGTTVTVSS VL: SYELTQPPSVSVSPGQTASITCSGDKLGDKYASWYQQKPGQSPVLVIYQDSKRPSGIPERFSGSNSGNTATLTISGTQAEDEADYYCQLSHGTLLVFGGGTKLTVL", 8.46],
  ["A-020 (antibody, V domains shown, tested as IgG) VH: QVQLVQSGAEVKKPGSSVKVSCKASGGTFQTYAISWVRQAPGQGLEWMGSIIPKFYQSNYAYKFQGRVTITADESTSTAYMELSSLRSEDTAVYYCAKDLGTYSSGWPYYYGMDVWGQGTTVTVSS VL: SYELTQPPSVSVSPGQTASITCSGDKLGDKYASWYQQKPGQSPVLVIYQDSKRPSGIPERFSGSNSGNTATLTISGTQAEDEADYYCQSTTHTSFVFGGGTKLTVL", 8.42],
  ["A-041 (antibody, V domains shown, tested as IgG) VH: QVQLVQSGAEVKKPGSSVKVSCKASGGTFSSYAISWVRQAPGQGLEWMGGIIPIFGTANYAQKFQGRVTITADESTSTAYMELSSLRSEDTAVYYCAKGPPVGSSSWYTDWYFDLWGRGTLVTVSS VL: SYELTQPPSVSVSPGQTASITCSGDKLGDKYASWYQQKPGQSPVLVIYQDSKRPSGIPERFSGSNSGNTATLTISGTQAEDEADYYCSSYGSGLTVVFGGGTKLTVL", 8.36],
  ["A-007 (antibody, V domains shown, tested as IgG) VH: QVQLVQSGAEVKKPGSSVKVSCKASGGSFREYAFSWVRQAPGQGLEWMGSIIPTFHTSNYAGKFQGRVTITADESTSTAYMELSSLRSEDTAVYYCAKDLGTYSSGWPYYYGMDVWGQGTTVTVSS VL: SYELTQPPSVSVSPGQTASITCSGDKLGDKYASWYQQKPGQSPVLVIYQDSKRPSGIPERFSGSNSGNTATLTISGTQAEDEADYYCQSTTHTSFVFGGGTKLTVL", 8.44],
  ["A-040 (antibody, V domains shown, tested as IgG) VH: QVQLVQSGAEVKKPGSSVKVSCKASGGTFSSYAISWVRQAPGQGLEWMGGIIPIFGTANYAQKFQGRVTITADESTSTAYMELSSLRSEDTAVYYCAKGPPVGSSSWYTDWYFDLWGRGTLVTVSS VL: SYELTQPPSVSVSPGQTASITCSGDKLGDKYASWYQQKPGQSPVLVIYQDSKRPSGIPERFSGSNSGNTATLTISGTQAEDEADYYCSLYGPAHTGVFGGGTKLTVL", 8.15],
  ["A-038 (antibody, V domains shown, tested as IgG) VH: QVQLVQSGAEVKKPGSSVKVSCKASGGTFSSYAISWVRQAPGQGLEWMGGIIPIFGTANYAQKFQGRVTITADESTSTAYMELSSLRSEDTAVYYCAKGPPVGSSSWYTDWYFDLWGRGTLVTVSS VL: SYELTQPPSVSVSPGQTASITCSGDKLGDKYASWYQQKPGQSPVLVIYQDSKRPSGIPERFSGSNSGNTATLTISGTQAEDEADYYCSLYGAGHTVVFGGGTKLTVL", 8.47]
]}
